Every entry's value here was drawn from patent US20250145625A1.

Documented IC50 across a set of molecules
study-target: recombinant human TTK protein (Homo sapiens (Human))
Sequence (P33981 whole entry): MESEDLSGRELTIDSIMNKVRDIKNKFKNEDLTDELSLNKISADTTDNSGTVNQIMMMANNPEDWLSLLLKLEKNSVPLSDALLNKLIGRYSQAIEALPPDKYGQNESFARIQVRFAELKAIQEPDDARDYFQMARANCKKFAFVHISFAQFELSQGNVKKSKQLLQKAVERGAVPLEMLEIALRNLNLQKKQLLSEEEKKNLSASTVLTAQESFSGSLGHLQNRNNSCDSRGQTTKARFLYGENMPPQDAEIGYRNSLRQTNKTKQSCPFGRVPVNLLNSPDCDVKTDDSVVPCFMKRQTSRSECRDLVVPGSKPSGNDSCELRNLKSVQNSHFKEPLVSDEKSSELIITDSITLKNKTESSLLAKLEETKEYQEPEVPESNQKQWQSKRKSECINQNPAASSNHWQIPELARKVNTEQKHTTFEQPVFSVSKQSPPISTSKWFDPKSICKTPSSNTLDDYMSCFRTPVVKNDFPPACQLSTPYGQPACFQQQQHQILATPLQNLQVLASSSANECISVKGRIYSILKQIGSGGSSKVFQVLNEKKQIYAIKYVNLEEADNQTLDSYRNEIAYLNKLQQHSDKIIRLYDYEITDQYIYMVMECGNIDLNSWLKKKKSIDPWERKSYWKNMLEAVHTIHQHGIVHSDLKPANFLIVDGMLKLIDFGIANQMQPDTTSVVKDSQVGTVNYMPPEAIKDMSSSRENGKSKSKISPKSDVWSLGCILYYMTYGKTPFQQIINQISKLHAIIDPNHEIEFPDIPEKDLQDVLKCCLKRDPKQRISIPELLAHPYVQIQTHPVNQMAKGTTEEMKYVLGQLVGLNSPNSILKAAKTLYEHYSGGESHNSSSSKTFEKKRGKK
procedure-text: Evaluation of TTK activity inhibitory ability (scintillation counting);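 note: reaction stopped with 0.5% phosphoric acid, spotted on P30 filter, TTK activity counted by scintillation, uninhibited no-compound wells taken as 100% control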
Assay type: biochemical
run-parameters: TTK inhibitory activity; read-out: IC50

Summary for this molecule, COc1cc(N2CCOCC2)ccc1Nc1nc(NC2CCOCC2)c2c(-c3cnn(C(F)F)c3)n[nH]c2n1 [Compound 8-24] : IC50 is < 30 nM

So, COc1cc(-c2nncn2C)ccc1Nc1nc(NC2CCCCC2)c2c(-c3cnn(C)c3)n[nH]c2n1 [Compound 11-2] ? Its IC50 was < 30 nM

What the record says about COc1cc(N2CCOCC2)ccc1Nc1nc(NC2CCOCC2)c2c(-c3cnoc3)n[nH]c2n1 [Compound 8-21] : IC50 is 30 to 100 nM

Reported IC50 ( COc1cc(N2CCOCC2)ccc1Nc1nc(NC2CCOCC2)c2c(-c3cnco3)n[nH]c2n1 [Compound 33-1] ) = < 30 nM

====

Measured IC50 accompanies every entry in the list below.
System: HCT116 colon cancer cell line
procedure-text: Cytotoxicity in TTK-expressed HCT116 cells
Type: cell-based
run-parameters: Homo sapiens, HCT-116, 120 h, 5 days

Form: compound = COc1cc(N2CCOCC2)ccc1Nc1nc(NC2CCCCC2)c2c(-c3ccn(C)n3)n[nH]c2n1 ; IC50 = 500 to 1000 nM

Entry COc1cc(N2CCOCC2)ccc1Nc1nc(NC2CCOCC2)c2c(-c3cccnc3)n[nH]c2n1 — recorded IC50 = 500 to 1000 nM

The compound COc1cc(C(=O)N2CCOCC2)ccc1Nc1nc(NC2CCCCC2)c2c(-c3cnn(C)c3)n[nH]c2n1 showed IC50 equal to 150 to 500 nM

For this compound ( COc1cc(N2CCOCC2)ccc1Nc1nc(NC2CCOCC2)c2c(-c3cn(C)nn3)n[nH]c2n1 ), measured IC50 is < 150 nM

====

Item-by-item account of IC50
System: HCT116 colon cancer cell line
procedure-text: Cytotoxicity in TTK-expressed HCT116 cells
Assay type: cell-based
run-parameters: Homo sapiens, HCT-116, 120 h, 5 days

Worked set:
molecule | study-target | result-value
COc1cc(N2CCOCC2)ccc1Nc1nc(Nc2ccccc2)c2c(-c3cnn(C)c3)n[nH]c2n1 [Compound 26-2] | HCT116 colon cancer cell line | > 1000 nM
COc1cc(N2CCOCC2)ccc1Nc1nc(NC2CCCCC2)c2c(-c3cn(C)cn3)n[nH]c2n1 [Compound 8-19] | HCT116 colon cancer cell line | 500 to 1000 nM
CC(C)Oc1cc(N2CCOCC2)ccc1Nc1nc(NC2CCCCC2)c2c(-c3cnn(C)c3)n[nH]c2n1 [Compound 26-1] | HCT116 colon cancer cell line | 500 to 1000 nM

# ---- query molecule ----
For reference, reported IC50 for COc1cc(N2CCOCC2)ccc1Nc1nc(NC2CCCCC2)c2c(-c3cnco3)n[nH]c2n1 [Compound 18-1] stands at < 150 nM

====

Tested on: HCT116 colon cancer cell line
procedure-text: Cytotoxicity in TTK-expressed HCT116 cells
Type: cell-based
run-parameters: Homo sapiens, HCT-116, 120 h, 5 days
Each item that follows carries a reported IC50.

compound | IC50
COc1cc(N2CCOCC2)ccc1Nc1nc(NC2CCOCC2)c2c(-c3cnn(C)c3)n[nH]c2n1 | 150 to 500 nM

We next turn to a different compound, shown below.
So, COc1cc(N2CCOCC2)ccc1Nc1nc(NC2CCCCC2)c2c(-c3cccc(NC(=O)C4CC4)c3)n[nH]c2n1 ? Its IC50 was > 1000 nM
